molecular target: COX-2 (purified enzyme from ewe placenta) (Ovis aries, UniProt P79208); construct: purified enzyme from ewe placenta; from tissue; host or cells: ewe placenta; assay: Inhibition of COX-2 enzymatic activity (PGE2 by EIA); format: biochemical; conditions: 10^-7 M; arachidonic acid 4 μM; mean of 4 determinations
Sequence (P79208 17-603): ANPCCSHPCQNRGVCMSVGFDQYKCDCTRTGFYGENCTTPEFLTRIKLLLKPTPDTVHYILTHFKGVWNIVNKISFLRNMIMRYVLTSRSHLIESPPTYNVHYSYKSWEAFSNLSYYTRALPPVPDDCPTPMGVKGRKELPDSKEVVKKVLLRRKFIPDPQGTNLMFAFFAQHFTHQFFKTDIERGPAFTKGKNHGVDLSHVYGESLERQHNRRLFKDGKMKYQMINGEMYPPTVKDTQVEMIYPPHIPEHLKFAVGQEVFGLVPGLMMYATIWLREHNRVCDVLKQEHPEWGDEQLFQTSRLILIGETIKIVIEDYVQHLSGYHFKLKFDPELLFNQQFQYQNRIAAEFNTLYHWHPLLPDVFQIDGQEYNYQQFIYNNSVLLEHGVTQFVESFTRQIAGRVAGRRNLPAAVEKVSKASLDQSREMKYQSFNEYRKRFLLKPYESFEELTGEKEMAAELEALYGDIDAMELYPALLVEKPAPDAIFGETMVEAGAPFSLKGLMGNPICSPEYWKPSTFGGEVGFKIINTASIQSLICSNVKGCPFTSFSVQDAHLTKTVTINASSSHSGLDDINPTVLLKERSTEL
reported endpoint: inhibition at 0.1 µM (%)
The figure you give is taken to be in %; do not add the unit.

Assign inhibition at 0.1 µM to the following record: CS(=O)(=O)c1ccc(-c2coc(=O)n2-c2ccccc2)cc1 16

Assign inhibition at 0.1 µM to the following record: Cc1cccc(-n2c(-c3ccc(S(C)(=O)=O)cc3)coc2=O)c1 14

Assign inhibition at 0.1 µM to the following record: CS(=O)(=O)c1ccc(-c2coc(=O)n2-c2cccc(F)c2)cc1 11

Assign inhibition at 0.1 µM to the following record: CS(=O)(=O)c1ccc(-c2coc(=O)n2-c2ccc(Cl)cc2)cc1 11

Assign inhibition at 0.1 µM to the following record: CS(=O)(=O)c1ccc(-c2coc(=O)n2-c2cccc(Cl)c2)cc1 18

Assign inhibition at 0.1 µM to the following record: CS(=O)(=O)c1ccc(-c2coc(=O)n2-c2ccc(F)cc2)cc1 12

Assign inhibition at 0.1 µM to the following record: CS(=O)(=O)c1ccc(-c2coc(=O)n2-c2ccc(Cl)c(Cl)c2)cc1 26

Assign inhibition at 0.1 µM to the following record: Cc1ccc(-n2c(-c3ccc(S(C)(=O)=O)cc3)coc2=O)cc1 12

---

biological target: COX-2 (purified enzyme from ewe placenta) (Ovis aries, UniProt P79208); construct: purified enzyme from ewe placenta; from tissue; host or cells: ewe placenta; assay: Inhibition of COX-2 enzymatic activity (PGE2 by EIA); assay type: biochemical; settings: 10^-5 M; arachidonic acid 4 μM; mean of 4 determinations
reported endpoint: inhibition at 10 µM (%)
The figure you give is taken to be in %; do not add the unit.

Assign inhibition at 10 µM to the following record: CS(=O)(=O)c1ccc(-c2coc(=O)n2-c2cccc(F)c2)cc1 76

Assign inhibition at 10 µM to the following record: CS(=O)(=O)c1ccc(-c2coc(=O)n2-c2ccc(F)cc2)cc1 82.7

Assign inhibition at 10 µM to the following record: CS(=O)(=O)c1ccc(-c2coc(=O)n2-c2ccccc2)cc1 78

Assign inhibition at 10 µM to the following record: CS(=O)(=O)c1ccc(-c2coc(=O)n2-c2ccc(Cl)cc2)cc1 85

Assign inhibition at 10 µM to the following record: CS(=O)(=O)c1ccc(-c2coc(=O)n2-c2cccc(Cl)c2)cc1 87

Assign inhibition at 10 µM to the following record: CS(=O)(=O)c1ccc(-c2coc(=O)n2-c2ccc(Cl)c(Cl)c2)cc1 94

Assign inhibition at 10 µM to the following record: Cc1ccc(-n2c(-c3ccc(S(C)(=O)=O)cc3)coc2=O)cc1 88

Assign inhibition at 10 µM to the following record: Cc1cccc(-n2c(-c3ccc(S(C)(=O)=O)cc3)coc2=O)c1 92

---

test: Gastric tolerance (ulcerogenic dose); design: species or system Charles River rats strain CD; settings: rat, in vivo, po
reported endpoint: TD50 at 6 h

Assign TD50 at 6 h to the following record: CS(=O)(=O)c1ccc(-c2coc(=O)n2-c2ccc(F)cc2)cc1 > 300 mg/kg

---

tested on: arthritis with kaolin (pain response); assay: Analgesic activity: test of arthritis with kaolin; type: in vivo; details: 30 mg/kg oral, rats, 5 hours 30 minutes after administration, n=10 per dose
reported endpoint: Analgesic activity, % inhibition (pain response) (%)
The figure you give is taken to be in %; do not add the unit.

Assign Analgesic activity, % inhibition (pain response) to the following record: CS(=O)(=O)c1ccc(-c2coc(=O)n2-c2ccc(Cl)c(Cl)c2)cc1 [Example 20] 75

Assign Analgesic activity, % inhibition (pain response) to the following record: CS(=O)(=O)c1ccc(-c2coc(=O)n2-c2ccccc2)cc1 [Example 16] 60

Assign Analgesic activity, % inhibition (pain response) to the following record: CS(=O)(=O)c1ccc(-c2coc(=O)n2-c2ccc(F)cc2)cc1 [Example 4] 55

Assign Analgesic activity, % inhibition (pain response) to the following record: CS(=O)(=O)c1ccc(-c2coc(=O)n2-c2ccc(Cl)cc2)cc1 [Example 17] 42

Assign Analgesic activity, % inhibition (pain response) to the following record: Cc1cccc(-n2c(-c3ccc(S(C)(=O)=O)cc3)coc2=O)c1 [Example 18] 0

Assign Analgesic activity, % inhibition (pain response) to the following record: CS(=O)(=O)c1ccc(-c2coc(=O)n2-c2cccc(Cl)c2)cc1 [Example 19] 60

Recorded values, source patent US5866596A.
